Listing: drug sensitivity score of selected compounds
system: NK-92 (IL-2 2.5 ng/mL); assay: drug sensitivity score (DSS) (DSS units); higher = more sensitive; extreme values may be limits of the assay; conditions: 72 h

[
  {
    "compound": "N#Cc1ccc(C(c2ccc(C#N)cc2)n2cncn2)cc1 [Letrozole] (max concentration tested 10000 nM)",
    "drug sensitivity score": 0.25
  },
  {
    "compound": "COc1cc(N2CCC(N3CCN(C)CC3)CC2)ccc1Nc1ncnc(Nc2ccccc2S(=O)(=O)C(C)C)n1 [ASP3026] (max concentration tested 10000 nM)",
    "drug sensitivity score": 0.4
  },
  {
    "compound": "O=C1CN2Cc3c(ccc(Cl)c3Cl)N=C2N1 [Anagrelide] (max concentration tested 10000 nM)",
    "drug sensitivity score": 1.23
  },
  {
    "compound": "COC1=CC(c2cc3ccccc3[nH]2)=N/C1=C\\c1[nH]c(C)cc1C [Obatoclax] (max concentration tested 10000 nM)",
    "drug sensitivity score": 11.6
  },
  {
    "compound": "NC(=O)N1CCC(CC(=O)N2CCC([C@H]3c4ncc(Br)cc4CCc4cc(Cl)cc(Br)c43)CC2)CC1 [Lonafarnib] (max concentration tested 10000 nM)",
    "drug sensitivity score": 7.81
  }
]

Incoming: Supply drug sensitivity score value. Item: O=C(Nc1ccc(-c2ccnc(Nc3ccc(N4CCOCC4)cc3)n2)cc1)C1CCCN1 (configuration not stated) [XL019] (max concentration tested 10000 nM)
Outgoing: 1.81

Incoming: Answer with the recorded drug sensitivity score for the compound listed here: CNC(=O)c1cc(Oc2ccc(NC(=O)Nc3ccc(Cl)c(C(F)(F)F)c3)c(F)c2)ccn1 [Regorafenib] (max concentration tested 10000 nM)
Outgoing: 9.31

Incoming: Report drug sensitivity score, nothing else, for this compound: C[C@]1(O)C[C@@H](c2nc(-c3ccc4ccc(-c5ccccc5)nc4c3)c3c(N)nccn32)C1 [Linsitinib] (max concentration tested 10000 nM)
Outgoing: 3.33

Incoming: Please give the documented drug sensitivity score of Nc1nc(N)c2nc(-c3cccc(O)c3)c(-c3cccc(O)c3)nc2n1 [TG100-115] (max concentration tested 10000 nM)
Outgoing: 0.35

Incoming: Please supply the value of reported drug sensitivity score for the item C[C@@H]1CCN(C(=O)CC#N)C[C@@H]1N(C)c1ncnc2[nH]ccc12 [Tofacitinib] (max concentration tested 5000 nM)
Outgoing: 14.5

Incoming: Specify measured drug sensitivity score for CC[C@H](Nc1ncnc2[nH]cnc12)c1nc2cccc(F)c2c(=O)n1-c1ccccc1 [Idelalisib] (max concentration tested 10000 nM) .
Outgoing: 14.8

Incoming: Report measured drug sensitivity score; entry is O=C(Nc1cccc(Nc2ncc(Br)c(NCCc3cnc[nH]3)n2)c1)N1CCCC1 [BX-912] (max concentration tested 10000 nM)
Outgoing: 8.1
